compounds and their reported IC50
Tested on: HepG2
PROCEDURE_DETAILS: Cytotoxicity against human HepG2 cells after 3 days
Type: functional, cell-based
MEASUREMENT_PARAMETERS: HepG2, 72 h
Report the figure in µg/mL without appending any unit label.

The examples below pair each entry with its known result.
So what does the record say about IC50 for CCCCCC(O)C(O)CCCCCC[C@H](O)[C@@H]1CC[C@H](CCCCCCCCCC[C@H](O)CC2=C[C@H](C)OC2=O)O1 (stereo partly drawn) [MURICIN B] ?
1.78

So what does the record say about IC50 for CCCCCCCC(O)C(O)CC[C@H](O)[C@@H]1CC[C@H](CCCCCCCCCCCC[C@@H](O)CC2=C[C@H](C)OC2=O)O1 (stereo partly drawn) [MURICIN C] ?
0.499

***
So what does the record say about IC50 for CCC[C@H](O)[C@@H](O)CCCCCCCC[C@@H](O)[C@H]1CC[C@H](CCCCCCCCCC[C@@H](O)CC2=C[C@H](C)OC2=O)O1 [ANNOCATALIN] ?
5.7

---

Tested on: HepG2
PROCEDURE_DETAILS: Cytotoxicity against human HepG2 cells after 3 days
Type: functional, cell-based
MEASUREMENT_PARAMETERS: HepG2, 72 h
ATTRIBUTE_MEASURED: IC50 (µg/mL)
Report the figure in µg/mL without appending any unit label.

So what does the record say about IC50 for CCCCCC(O)C(O)CCCCCC[C@@H](O)[C@H]1CC[C@H](CCCCCCCCCC[C@@H](O)CC2=C[C@H](C)OC2=O)O1 (stereo partly drawn) [MURICIN A] ?
5.04

So what does the record say about IC50 for COc1cccc2c1C(=O)c1c(O)c3c(c(O)c1C2=O)C[C@@](O)(C(=O)CO)C[C@@H]3O[C@H]1C[C@H](N)[C@H](O)[C@H](C)O1 [DOXORUBICIN] ?
0.241

So what does the record say about IC50 for CCCCCCCCCCCC[C@@H](O)[C@H]1CC[C@@H]([C@@H](O)CCCCCCC(O)CCCCC[C@@H](O)CC2=C[C@H](C)OC2=O)O1 (stereo partly drawn) ?
0.298

---

Test system: HepG2
PROCEDURE_DETAILS: Cytotoxicity against human HepG2 cells after 3 days
Format: functional, cell-based
MEASUREMENT_PARAMETERS: HepG2, 72 h
molecules and their reported IC50
Report the figure in µg/mL without appending any unit label.

The examples below pair each entry with its known result.
Recall the recorded IC50 for CCCCCCCCCCCC[C@@H](O)[C@H]1CC[C@@H]([C@@H](O)CCCCC(=O)CCCCCCCC2=C[C@H](C)OC2=O)O1 [COROSSOLONE] with HepG2 and state it.
0.165

Recall the recorded IC50 for CCCCC/C=C\CC[C@H](O)[C@@H](O)CCCC[C@@H](O)[C@H]1CC[C@H](CCCCCCCCCCCCC2=C[C@H](C)OC2=O)O1 [MURICIN I] with HepG2 and state it.
0.0509

Continue with the molecule presented below.
Recall the recorded IC50 for CCCCCCC[C@H](O)[C@@H](O)CCCC[C@@H](O)[C@H]1CC[C@H](CCCCCCCCCCCCC2=C[C@H](C)OC2=O)O1 [MURICIN H] with HepG2 and state it.
0.0951
